# Assayed System: D-dopachrome decarboxylase (Homo sapiens, UniProt P30046)
# Sequence (P30046 whole entry): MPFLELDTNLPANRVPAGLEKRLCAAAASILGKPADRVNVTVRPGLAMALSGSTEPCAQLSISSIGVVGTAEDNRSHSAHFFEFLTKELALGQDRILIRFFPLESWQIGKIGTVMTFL
pIC50: −log10 of the molar value.
Endpoint Label: pIC50

q: Which value of pIC50 has been reported for "Cc1cc(-c2ccccc2)ncn1" in the records?
a: < 3.30

* * *

# Assayed System: Macrophage migration inhibitory factor (Homo sapiens)
# Assay Summary: Inhibition of human recombinant MIF extracted from Escherichia coli BL21 (DE3)
Hi there, I'd appreciate the recorded IC50 for every entry that follows.
Numbers only, in µM.

| Smiles Representation | IC50 (µM) |
| --- | --- |
| C[C@@H]1O[C@@H](O[C@H]2[C@H](Oc3cc(O)c4c(c3)O[C@@H](c3ccc(O)cc3)CC4=O)O[C@H](CO)[C@@H](O)[C@@H]2O)[C@H](O)[C@H](O)[C@H]1O | 51.4 |
| O=c1c(O)c(-c2ccc(O)cc2O)oc2cc(O)cc(O)c12 | 11 |
| O=c1c(O)c(-c2ccc(O)cc2)oc2cc(O)cc(O)c12 | 189 |

Lab note: next molecule to report on.
q: Which value of IC50 has been reported for "O=c1c(-c2c(O)cc(O)c3c(=O)cc(-c4ccc(O)cc4)oc23)c(-c2ccc(O)cc2)oc2cc(O)cc(O)c12" in the records?
a: 13.3

* * *

Hi there, I'd appreciate the recorded pIC50 for every entry that follows.
# Assayed System: Macrophage migration inhibitory factor (Homo sapiens, UniProt P14174)
# Sequence (P14174 whole entry): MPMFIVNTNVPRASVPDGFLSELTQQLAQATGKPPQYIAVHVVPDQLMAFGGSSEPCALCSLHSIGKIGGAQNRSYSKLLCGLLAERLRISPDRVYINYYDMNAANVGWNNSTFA
# Assay Summary: Inhibition of human recombinant MIF tautomerase activity
Give bare numbers, as −log10 of the molar value.

| Smiles Representation | pIC50 |
| --- | --- |
| O=C1/C(=C/c2ccc3cc[nH]c3c2)CCc2ccccc21 | 4.23 |
| COc1cc(/C=C2\CCc3cc(O)ccc3C2=O)ccc1O | 5.37 |
| Cn1cccc1/C=C1\CCc2ccccc2C1=O | 4.62 |

Give pIC50 for each of the items listed below.
1. Cc1ccc(/C=C2\CCc3ccccc3C2=O)cc1
2. COc1ccccc1/C=C1\COc2ccccc2C1=O
3. O=C1/C(=C/c2ccccc2)CCCc2ccccc21
4. O=C1/C(=C/c2cccnc2)CCc2ccccc21
5. O=C1/C(=C/c2ccccc2)CCc2ccccc21
6. O=C1/C(=C/c2ccncc2)CCc2ccccc21

a:
[4.78, 5.37, 4.08, 4.69, 3.90, 4.68]

q: Param readout = pIC50; param system = Macrophage migration inhibitory factor (Homo sapiens, UniProt P14174); param query = "O=C1/C(=C/c2ccco2)CCc2ccccc21" ; response: value
a: 4.24

* * *

# Assayed System: Macrophage migration inhibitory factor (Homo sapiens)
# Assay Summary: Binding affinity to human recombinant MIF extracted from Escherichia coli BL21 (DE3) assessed as inhibition constant
Endpoint Label: Ki (µM)
Give bare numbers, in µM.

Here is how some molecules turned out for Ki.
| Smiles Representation | Ki / µM |
| --- | --- |
| O=c1c(-c2c(O)cc(O)c3c(=O)cc(-c4ccc(O)cc4)oc23)c(-c2ccc(O)cc2)oc2cc(O)cc(O)c12 | 10.1 |
| C[C@@H]1O[C@@H](O[C@H]2[C@H](Oc3cc(O)c4c(c3)O[C@@H](c3ccc(O)cc3)CC4=O)O[C@H](CO)[C@@H](O)[C@@H]2O)[C@H](O)[C@H](O)[C@H]1O | 43.5 |

q: Which value of Ki has been reported for "O=c1c(O)c(-c2ccc(O)cc2O)oc2cc(O)cc(O)c12" in the records?
a: 8.95

* * *

# Assayed System: D-dopachrome decarboxylase (Homo sapiens, UniProt P30046)
# Assay Summary: Inhibition of wild type human DDT tautomerase activity at 100 uM relative to control
Endpoint Label: inhibition

Here is how some compounds turned out for inhibition.
| Compound | Endpoint Label | Assay Value |
| --- | --- | --- |
| O=C(O)c1ccccn1 | inhibition | > 75% |
| O=C(O)c1cccnc1 | inhibition | > 100% |
| O=C(O)c1ccc(C(=O)O)cc1 | inhibition | > 75% |
| c1ccc(-c2ccncc2)cc1 | inhibition | > 100% |

q: Param readout = inhibition; param system = D-dopachrome decarboxylase (Homo sapiens, UniProt P30046); param query = O=C(O)c1ccc(C(=O)O)nc1 [PYRIDINE-2,5-DICARBOXYLIC ACID] ; response: value
a: < 25%
